B1: CPEB3 Ribozyme (parent)
chain: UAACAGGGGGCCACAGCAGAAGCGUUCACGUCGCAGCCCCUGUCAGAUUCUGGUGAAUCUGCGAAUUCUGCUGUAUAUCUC

Variants of: B1
protocol-summary: self-cleavage, relative activity (ratio to wild type); higher = more cleavage; in vitro, sequencing
Class (required): determined from self-cleavage; valid ranges are bottom range (below 0.3), center range (0.3 to below 0.5), top range (0.5 or more)

>  <mutation-id>
G46U U54G

>  <classification>
bottom range

$$$$
>  <mutation-id>
C38U U80G

>  <classification>
top range

$$$$
>  <mutation-id>
C17U A47U

>  <classification>
center range

$$$$
>  <mutation-id>
G24A U51G

>  <classification>
bottom range

$$$$
>  <mutation-id>
A13U U66C

>  <classification>
center range

$$$$
>  <mutation-id>
A3U U43A

>  <classification>
top range

$$$$
>  <mutation-id>
C32U U51A

>  <classification>
bottom range

$$$$
>  <mutation-id>
G8A U67A

>  <classification>
bottom range

$$$$
>  <mutation-id>
C12U A75U

>  <classification>
top range

$$$$
>  <mutation-id>
A45C A77U

>  <classification>
center range

$$$$
>  <mutation-id>
U54C C81U

>  <classification>
top range

$$$$
>  <mutation-id>
A2G A65G

>  <classification>
bottom range

$$$$
>  <mutation-id>
C11U A47G

>  <classification>
center range

$$$$
>  <mutation-id>
A5G C12A

>  <classification>
center range

$$$$
>  <mutation-id>
A21G A64C

>  <classification>
center range

$$$$
>  <mutation-id>
A65U A75U

>  <classification>
center range

$$$$
>  <mutation-id>
A15G U51G

>  <classification>
top range

$$$$
>  <mutation-id>
U26C U31A

>  <classification>
bottom range

$$$$
>  <mutation-id>
G9U U72C

>  <classification>
bottom range

$$$$
>  <mutation-id>
C38G A77U

>  <classification>
center range

$$$$
>  <mutation-id>
A57G U67A

>  <classification>
center range

$$$$
